Just for reference, the supplement of paper PMC8728848 is where these values come from.

Target: Neu5Ac(a2-3)Gal(b1-4)[Fuc(a1-3)]GlcNAc6S
Experiment: glycan array binding signal (z-score within array); higher = stronger binding
Conditions: glycan notation: IUPAC condensed, linker removed
Shown is part of a subset that was picked to be rich in the strongest signals.
readout_label: glycan array binding signal (z-score)
Lab note: jot down the number only; don't add units.

Data request, read-out glycan array binding signal (z-score), for PNA (Arachis hypogaea), P02872 (protein) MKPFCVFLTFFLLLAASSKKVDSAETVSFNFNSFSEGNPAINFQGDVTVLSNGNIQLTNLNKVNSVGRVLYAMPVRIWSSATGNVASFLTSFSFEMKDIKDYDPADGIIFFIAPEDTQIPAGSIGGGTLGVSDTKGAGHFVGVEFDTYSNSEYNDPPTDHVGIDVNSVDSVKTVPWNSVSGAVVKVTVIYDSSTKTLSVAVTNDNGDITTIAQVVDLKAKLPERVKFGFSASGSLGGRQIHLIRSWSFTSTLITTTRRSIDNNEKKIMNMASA
-0.225
